- Tested on: 786-0 renal
- ASSAY_PROTOCOL: NCI-60 one-dose screen, 48 h
- EXPERIMENTAL_PARAMETERS: 10 µM unless noted
About 83,000 compounds went through this panel and 20% of them were active in at least one assay; those are over-represented in the sample as a whole. Activity calls are given as the source filed them. Rule for the calls: active = growth percent below 10; inactive = the rest.
Write down the outcome that applies. Available outcomes: yes = active, no = inactive

Problem: Per the records of this test, what outcome belongs to "Cn1cnc([N+](=O)[O-])c1N1c2ccncc2Sc2ccncc21" ?
Solution: no

Problem: What outcome does the record of this test show for "COc1ccc(CNc2nc3ccccc3c3c(=O)c4ccccc4sc23)cc1OC" ?
Solution: no

Problem: Please indicate how the test categorized "c1ccc(-c2nc3sc(C(c4ccccc4)c4ccccc4)nn3c2-c2ccccc2)cc1" .
Solution: no

Problem: Which outcome was assigned to "COc1ccc(-c2cc(-c3nnc(SC/C(=N\O)c4ccccc4)n3-c3ccccc3)c3ccccc3n2)cc1" in this test?
Solution: no

Problem: Short answer needed: outcome of this test for "c1ccc(CNCCN(CCNCc2ccccn2)Cc2ccc3ccccc3c2)nc1" ?
Solution: yes

Problem: How did this test come out for "COc1ccc(N)c(S)c1" ?
Solution: no

Problem: Name the outcome recorded for Cc1cn(C2CC(F)C(CO)O2)c(=O)[nH]c1=O (stereo unspecified) in the assay.
Solution: no

Problem: Test call, this compound: "O=C1C(Cl)=C(Nc2cccc3cc4ccccc4nc23)C(=O)c2ccccc21"
Solution: no

Problem: # fetch the recorded call for "O[C@@H]1CCO[C@H](c2ccc3ccccc3c2)C1" here
Solution: no

Problem: Dear all, I need the recorded test outcome for "Nc1nc(-c2cc3c(cc2Cl)NC(=O)/C3=C/c2ccc(Cl)cc2)cs1" , thank you.
Solution: no

Problem: For "CN1CCN(Cn2nc(-c3cc(Cl)cc(Cl)c3Cl)n(/N=C/c3ccc(Cl)cc3)c2=S)CC1" , what call appears in the results of this test?
Solution: no

Problem: # fetch the recorded call for "COc1ccc(-c2nn(-c3ccc(NC(=O)Nc4cc(C(F)(F)F)cc(C(F)(F)F)c4)cc3)cc2-c2ccncc2)cc1Cl" here
Solution: yes

Problem: Which outcome did this test record for the compound "O=C(O)c1ccccc1C(=O)c1ccc(I)cc1" ?
Solution: no

Problem: Which outcome was entered for the compound "CCN(CC)CCNC(=O)c1c(C)[nH]c(/C=C2\C(=O)Nc3cc(NC(=O)NC(=O)c4ccc(OC)cc4F)ccc32)c1C" in this test?
Solution: yes

Problem: Could you check what this test reported for "COc1ccc(-c2nnc(NC(=O)CN3CCN(c4cc5c(cc4F)c(=O)c(C(=O)O)cn5C4CC4)CC3)s2)cc1OC" ?
Solution: no

Problem: Short answer needed: outcome of this test for "C=C1C(=O)O[C@H]2[C@H]1CC/C(COC(=O)c1ccc(C#N)cc1)=C\CC[C@@]1(C)O[C@@H]21" ?
Solution: no

Problem: Answer briefly: the call reported for "COC(=O)c1oc2c(C(C)=O)c(OCCN3CCCCC3)ccc2c1C" in this assay.
Solution: no

Problem: Dear colleague, could you share the recorded outcome for "CCOC(=O)c1[nH]c(-c2ccc(Cl)cc2)cc1-c1cccnc1" when you have a moment?
Solution: no

Problem: Which outcome did this test record for the compound "C#CCn1c(-c2cc(OC)c(OC)cc2Br)nc(-c2ccccc2)c1-c1ccccc1" ?
Solution: no

Problem: Check the results log: what was the call for "COc1ccc(/C(Cl)=N/N=C(\Cl)c2cc(OC)c(OC)c(OC)c2)cc1OC(C)=O" ?
Solution: no

Problem: Please let me know the test result on file for "c1cncc(-c2nc3ccccc3[nH]2)c1" .
Solution: no

Problem: Hello, I am checking results. What call was entered for "CCCCOc1c(N)cccc1C(=O)OCCN(CC)CC" ?
Solution: no

Problem: Each compound tested received a call. Report the one for "Cc1cc(N2CCOCC2)nc(N(CCNc2ccnc3cc(Cl)ccc23)Cc2ccco2)n1" .
Solution: yes

Problem: Per the assay record, what outcome was assigned to CC1=C[S+](c2ccccc2)c2cccc3cc4ccccc4c1c23 (stereo unspecified) ?
Solution: yes

Problem: Which outcome was entered for the compound "CC(C)[C@@H]1NC(=O)[C@]2(C)CSC(=N2)c2ccnc(c2)CNC(=O)C[C@@H](/C=C/CCS)OC1=O" in this test?
Solution: yes

Problem: Any idea what this test logged for "Nn1c(CN2CCN(c3cc4c(cc3F)c(=O)c(C(=O)O)cn4C3CC3)CC2)n[nH]c1=S" ?
Solution: no

Problem: Could you please tell me the result logged for "CCCN1C(=O)CSC1=Nc1ccc2cc3ccc(N=C4SCC(=O)N4CCC)cc3nc2c1" in this assay?
Solution: yes

Problem: Hello, I am checking results. What call was entered for "Nc1ncnc2c1c(-c1ccc(Oc3ccccc3)cc1)nn2C[C@H]1SSC[C@H]1O" ?
Solution: no

Problem: State the result this test recorded for "COc1ccc(C(=O)Cn2cnc3c(Nc4cc(C(=O)Nc5ccc(N6CCN(CCO)CC6)cc5)ccc4C)ncnc32)cc1" .
Solution: no

Problem: Can you look up the reported call for "CCCCCCCCCCCCCCCCNc1ccccc1" for me?
Solution: no

Problem: Answer briefly: the call reported for "Nc1ncnc2c1c(-c1ccc(Oc3ccccc3)cc1)nn2C[C@@H]1SSC[C@H]1O" in this assay.
Solution: no
